Test system: A. baumannii strain AB1
Experiment: MIC by broth micro-dilution, clinical strain AB1
Assay type: cell-based, Acinetobacter baumannii
Measurement parameters: Acinetobacter baumannii; strain AB1, LB broth; read-out: susceptibilities to antibiotics (MICs)
Experimental endpoint: MIC

INSERT INTO results (compound, target_of_assay, experimental_endpoint, reported_value) VALUES
  ('CN(C)[C@@H]1C(O)=C(C(N)=O)C(=O)[C@@]2(O)C(O)=C3C(=O)c4c(O)cccc4[C@@](C)(O)[C@H]3C[C@@H]12', 'A. baumannii strain AB1', 'MIC', '32 µg/mL'),
  ('CCN1CCN(C(=O)N[C@@H](C(=O)N[C@@H]2C(=O)N3[C@@H]2SC(C)(C)[C@@H]3C(=O)O)c2ccccc2)C(=O)C1=O', 'A. baumannii strain AB1', 'MIC', '≥ 128 µg/mL'),
  ('CO/N=C(\C(=O)N[C@@H]1C(=O)N2C(C(=O)[O-])=C(C[N+]3(C)CCCC3)CS[C@H]12)c1csc(N)n1 [Cefepime]', 'A. baumannii strain AB1', 'MIC', '≥ 64 µg/mL'),
  ('C[C@@H](O)[C@H]1C(=O)N2C(C(=O)O)=C(S[C@@H]3CN[C@H](C(=O)N(C)C)C3)[C@H](C)[C@H]12', 'A. baumannii strain AB1', 'MIC', '≥ 16 µg/mL'),
  ('CO[C@@]1(NC(=O)CSCC#N)C(=O)N2C(C(=O)O)=C(CSc3nnnn3C)CS[C@@H]21', 'A. baumannii strain AB1', 'MIC', '≥ 64 µg/mL'),
  ('Cc1nnc(SCC2=C(C(=O)O)N3C(=O)[C@@H](NC(=O)Cn4cnnn4)[C@H]3SC2)s1', 'A. baumannii strain AB1', 'MIC', '≥ 64 µg/mL'),
  ('CO/N=C(\C(=O)N[C@@H]1C(=O)N2C(C(=O)O)=C(CSc3nc(=O)c(=O)[nH]n3C)CS[C@H]12)c1csc(N)n1', 'A. baumannii strain AB1', 'MIC', '≥ 64 µg/mL'),
  ('CC1(C)S[C@@H]2[C@H](NC(=O)[C@H](N)c3ccccc3)C(=O)N2[C@H]1C(=O)O', 'A. baumannii strain AB1', 'MIC', '≥ 512 µg/mL'),
  ('CC(C)(O/N=C(\C(=O)N[C@@H]1C(=O)N2C(C(=O)[O-])=C(C[n+]3ccccc3)CS[C@H]12)c1csc(N)n1)C(=O)O', 'A. baumannii strain AB1', 'MIC', '≥ 64 µg/mL');
